protocol-details: HIF pathway activators in reporter cells, dose response, cell-based, U2OS HRE-luciferase, luminescence, dry powder, set 3 (AID 493180)
condition-description: U2OS HRE-luciferase reporter, luminescence, HIF pathway activation; at 38 µM (top of the series)
The source made the active and inactive calls.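 How the source made its calls: active means fitted curve reaching 40% activation at or below the top valid tested dose; inactive means the rest, or activity counter to the expected direction.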
endpoint-name: activation

// below: answered molecules
> print(dat)
                                   molecule  endpoint.name       readout.value
1      Cc1ccc(CNC(=O)c2cc(-c3ccccc3)on2)cc1     activation  -0.867% (inactive)
2  Cn1c(NC(=O)c2cc(-c3ccccc3)on2)nc2ccccc21     activation   0.384% (inactive)
3  Cn1c(-c2ccccc2)cnc1NC(=O)c1cc(-c2ccccc2)on1     activation   0.636% (inactive)
4        Cc1ccccc1CNC(=O)c1cc(-c2ccccc2)on1     activation    1.28% (inactive)

Give me activation for each of these molecules, listed below.
1. O=C(c1cc(-c2ccccc2)on1)N1CCN(c2ccncc2)CC1
2. O=C(Nc1nnc(-c2ccccc2)s1)c1cc(-c2ccccc2)on1
3. O=C(NC1CCc2ccccc2C1)c1cc(-c2ccccc2)on1 (configuration not stated)

["-1.02% (inactive)", "0.329% (inactive)", "-0.627% (inactive)"]

Consider the following items and state reported activation for each.
1. CC1CN(Cc2ccc(O)c3ncccc23)CC(C)O1 (configuration not stated)
2. N#CC1(c2ccccc2)CCN(Cc2ccc(O)c3ncccc23)CC1

["2.27% (inactive)", "6.8% (inactive)"]

====

protocol-details: HIF pathway activators in reporter cells, dose response, cell-based, U2OS HRE-luciferase, luminescence, dry powder, set 3 (AID 493180)
condition-description: U2OS HRE-luciferase reporter, luminescence, HIF pathway activation; at 38 µM (top of the series)
endpoint-name: activation (%)
Numbers only, in %.

Example cases with answers are listed next.
> print(dat)
                               compound  readout.value
1     O=C(NCc1ccccc1)c1cc(-c2ccccc2)on1          0.892
2  Cc1cccc(CNC(=O)c2cc(-c3ccccc3)on2)c1          -1.13
3       CN(C)CCNC(=O)c1cc(-c2ccccc2)on1           1.68

State the recorded activation for every item in the following list.
1. CC(C)(C)CCNC(=O)c1cc(-c2ccccc2)on1
2. O=C(NCC1CCCCC1)c1cc(-c2ccccc2)on1
3. Cc1cccc(NC(=O)c2cc(-c3ccccc3)on2)n1

[19.3, 3.45, 1.4]

Please give activation for each item listed below.
1. Oc1ccc(CNC2CCc3ccccc32)c2cccnc12 (stereo not drawn)
2. O=C(Nc1ncc2ccccc2n1)c1cc(-c2ccccc2)on1

1. 11.5
2. 2.48

====

Kindly state activation for each of the entries shown.
protocol-details: HIF pathway activators in reporter cells, dose response, cell-based, U2OS HRE-luciferase, luminescence, dry powder, set 3 (AID 493180)
condition-description: U2OS HRE-luciferase reporter, luminescence, HIF pathway activation; at 38 µM (top of the series)
Active and inactive are the calls of the source.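 Rule for the calls: active = fitted curve reaching 40% activation at or below the top valid tested dose; inactive = the rest, or activity counter to the expected direction.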

> print(dat)
                            entry.smiles     readout.value
1  O=C(NC1Cc2ccccc2C1)c1cc(-c2ccccc2)on1  2.88% (inactive)
2       Oc1ccc(CN2CCc3ccccc3C2)c2cccnc12  1.34% (inactive)

# ---- query compound ----
What does the record list as activation for Oc1ccc(CN2CCC(Cc3ccccc3)CC2)c2cccnc12 ?
22.2% (inactive)

FYI, the data here is from PubChem BioAssay AID493180.
